# Tested on: L1210 leukemia ip in BDF1 mice, survival T/C
# protocol: NCI In Vivo Anticancer Drug Screen. Data for tumor model L1210 Leukemia (intraperitoneal) in B6D2F1 (BDF1) mice
# protocol_conditions: endpoint: mean survival time; dose: 400.0 mg/kg/injection; schedule: Q01DX009 (ip); vehicle: saline; higher = longer survival
Inconclusive results and toxic doses are left out.

[
  {
    "molecule": "[Mg+2]",
    "T/C": "97 % of control"
  },
  {
    "molecule": "COc1ccccc1C1CCCCCC1O (centres undefined)",
    "T/C": "98 % of control"
  },
  {
    "molecule": "C[Si](C)(C)O[Si](C)(C)c1ccccc1",
    "T/C": "96 % of control"
  },
  {
    "molecule": "O=C(NO)c1ccccc1O",
    "T/C": "97 % of control"
  },
  {
    "molecule": "NC(=O)CC[n+]1cccc(C(=O)O)c1",
    "T/C": "92 % of control"
  },
  {
    "molecule": "COc1ccc(C2(SCC(N)C(=O)O)c3ccccc3-c3ccccc32)cc1 (centres undefined)",
    "T/C": "102 % of control"
  },
  {
    "molecule": "CC(=O)NCCN(C)C",
    "T/C": "97 % of control"
  },
  {
    "molecule": "Nc1cc(S(=O)(=O)O)cc2ccc(S(=O)(=O)O)cc12",
    "T/C": "102 % of control"
  },
  {
    "molecule": "CCOC(=O)CC(N)C(=O)OCC (centres undefined)",
    "T/C": "97 % of control"
  },
  {
    "molecule": "CC(=O)Oc1cc(Cl)c(Cl)cc1Cl",
    "T/C": "102 % of control"
  },
  {
    "molecule": "NC(C1SCCS1)C(O)C(O)C(O)CO (centres undefined)",
    "T/C": "96 % of control"
  },
  {
    "molecule": "Nc1ncnn1C(=O)NCCCl",
    "T/C": "97 % of control"
  },
  {
    "molecule": "c1c[nH]cn1",
    "T/C": "103 % of control"
  },
  {
    "molecule": "O=C1NC(=O)C(C2CCCCC2)(C2CCCCC2)N1",
    "T/C": "88 % of control"
  },
  {
    "molecule": "COC(O)C(Cl)(Cl)Cl (centres undefined)",
    "T/C": "103 % of control"
  },
  {
    "molecule": "O=C1CCCCCCCCC1O (centres undefined)",
    "T/C": "105 % of control"
  },
  {
    "molecule": "CN(C)C(=O)CCl",
    "T/C": "104 % of control"
  },
  {
    "molecule": "O=S(=O)(O)CCN1CCN(CCO)CC1",
    "T/C": "98 % of control"
  },
  {
    "molecule": "CC(=O)C1OC1(C)C (centres undefined)",
    "T/C": "104 % of control"
  }
]
